# tgt: recombinant human HPK1 (Homo sapiens (Human), UniProt Q92918)
# Sequence (Q92918 whole entry): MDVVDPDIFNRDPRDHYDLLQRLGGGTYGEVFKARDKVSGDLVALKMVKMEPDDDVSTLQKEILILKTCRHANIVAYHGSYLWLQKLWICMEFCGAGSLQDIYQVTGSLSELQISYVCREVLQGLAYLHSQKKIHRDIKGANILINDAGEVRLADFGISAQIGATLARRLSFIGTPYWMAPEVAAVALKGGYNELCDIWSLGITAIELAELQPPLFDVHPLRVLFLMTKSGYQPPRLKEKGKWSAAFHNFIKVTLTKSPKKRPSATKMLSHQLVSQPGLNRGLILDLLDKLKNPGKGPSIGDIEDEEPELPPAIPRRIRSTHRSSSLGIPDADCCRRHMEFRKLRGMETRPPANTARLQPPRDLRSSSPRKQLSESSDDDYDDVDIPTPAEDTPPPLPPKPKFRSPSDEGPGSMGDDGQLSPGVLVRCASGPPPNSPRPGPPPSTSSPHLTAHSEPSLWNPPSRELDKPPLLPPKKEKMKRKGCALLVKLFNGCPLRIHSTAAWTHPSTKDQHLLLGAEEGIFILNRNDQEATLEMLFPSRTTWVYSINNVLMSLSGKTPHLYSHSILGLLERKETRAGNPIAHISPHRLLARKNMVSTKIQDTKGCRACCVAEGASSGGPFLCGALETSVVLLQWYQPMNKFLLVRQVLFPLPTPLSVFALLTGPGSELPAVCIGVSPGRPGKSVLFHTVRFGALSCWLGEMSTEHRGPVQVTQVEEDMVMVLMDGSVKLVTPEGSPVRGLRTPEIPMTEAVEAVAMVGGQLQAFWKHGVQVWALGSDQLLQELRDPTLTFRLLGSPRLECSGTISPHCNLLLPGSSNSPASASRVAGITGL
# measurement description: HPK1 kinase assay (Promega ADP-Glo kinase assay)
# condition description: In vitro activity against HPK1, 5 ng HPK1, MBP substrate, ATP 25 μM, 30° C. 40 minutes
# Experimental: HPK1 kinase activity was measured by Promega's ADP-Glo™ kinase assay. […] Luminescence was detected after 30-min room temperature incubation with the Molecular device I3X plate reader. The IC50 values were calculated from a series of percent inhibition values determined at a range of inhibitor concentration using software routines as implemented in the GraphPad Prism 7 software and SigmaPlot13.0.
pIC50: −log10 of the molar value.
property label: pIC50

1. COc1c(F)c(NC(C)C)c2[nH]ncc2c1-c1cn2cc(NC(=O)[C@@H]3C[C@@H]3F)nc2cn1 ... > 7.00
2. Cc1c(F)c(C(C)N(C)C)c2[nH]ncc2c1-c1cn2cc(NC(=O)[C@@H]3C[C@@H]3F)nc2cn1 (stereo partly shown) ... 6.00 to 6.30
3. COC(=O)Nc1cn2cc(-c3c(Cl)c(F)c(NC(C)C)c4[nH]ncc34)ncc2n1 ... > 7.00
4. Cc1c(F)c(C2CCCC2O)c2[nH]ncc2c1-c1cn2cc(NC(=O)[C@@H]3C[C@@H]3F)nc2cn1 (stereo partly shown) ... > 7.00
5. CC(=O)Nc1cn2cc(-c3c(Cl)c(F)c(CN4CCC(O)C4)c4[nH]ncc34)ncc2n1 (stereo not shown) ... 6.00 to 6.30
6. CC(NC=O)c1c(F)c(C(F)(F)F)c(-c2cn3cc(NC(=O)[C@@H]4C[C@@H]4F)nc3cn2)c2cn[nH]c12 (stereo partly shown) ... > 7.00
7. Cc1c(F)c(C(NC(=O)C(F)(F)F)C2CC2)c2[nH]ncc2c1-c1cn2cc(NC(=O)[C@@H]3C[C@@H]3F)nc2cn1 (stereo partly shown) ... > 7.00
